Each recorded value in this set is attributed to the supplement of paper PMC11865577.

- Test system: G-clamp-N3 (biotin conjugate)
- Procedure details: pull-down binding Z-score (relative to library population); higher = stronger binding
- Test settings: RNA library: Library-1 (pre-miRNA loops + repeats)
Where pull-down binding Z-score equals or exceeds -0.2, the correct label is yes (1); where it does not, the label is no (0).

[[record]]
seq = "GCAGCUAGUAUUCUCACUCCAGUUGC [hsa-mir-153-1]"
class_assignment = "no (0)"

[[record]]
seq = "GCCAGAUGCUGAGCGAUGGC [hsa-mir-4730]"
class_assignment = "yes (1)"

[[record]]
seq = "CUUUAGCUAUUCUGAAUGCCUAAAG [hsa-mir-4662a]"
class_assignment = "no (0)"

[[record]]
seq = "GAAACAUCUUUUAC [hsa-mir-4514]"
class_assignment = "no (0)"

[[record]]
seq = "UGCUUCCACAUAGCAGCA [hsa-mir-4752]"
class_assignment = "no (0)"

[[record]]
seq = "GACUGCUCAAGGUCAAAGGGGUC [hsa-mir-3918]"
class_assignment = "yes (1)"

[[record]]
seq = "GCUUAUACGUGCCCUUGCU [hsa-mir-8075]"
class_assignment = "no (0)"

[[record]]
seq = "UGUUAAGGCAUGUUCAGGAACA [hsa-mir-1265]"
class_assignment = "yes (1)"

[[record]]
seq = "CUUUGUCAUUAAAACCAAUAACAAAA [hsa-mir-548ap]"
class_assignment = "no (0)"

[[record]]
seq = "CUGAACUGGGCUGGGUUGAGCUGGGCUGGGCUGAGUUGAG [hsa-mir-4538]"
class_assignment = "yes (1)"

[[record]]
seq = "CGGGGGGGGCCCGGGGACGGCUUGGGCCUGCCUAGUCGG [hsa-mir-1234]"
class_assignment = "yes (1)"


* * *

- System: TO-N3 (biotin conjugate)
- Procedure details: pull-down binding Z-score (relative to library population); higher = stronger binding
- Test settings: RNA library: Library-2
Listed here: items and their measured pull-down binding Z-score.
Test readout: pull-down binding Z-score

[[record]]
seq = "CUUGCAGAAUUAAUGGAAUGCUG [hsa-mir-676]"
readout_number = 0.41

[[record]]
seq = "GAGGGAUGAGUGCACUUCACCUGC [hsa-mir-4435-1_4435-2]"
readout_number = 0.375

[[record]]
seq = "CGUGCGCCAGUGGAG [hsa-mir-6089-2_6089-1]"
readout_number = 0.573

[[record]]
seq = "CUUGUGGUGAAGUGGACCGCACAAG [hsa-mir-99a]"
readout_number = -0.0222

[[record]]
seq = "UGGUGGUGAAUUCAUGAGUCGCCA [hsa-mir-3115]"
readout_number = -0.671

[[record]]
seq = "UGCCUACUACUGAUGACAUACAAUGUAAGUGCUCAUUUAGGCG [hsa-mir-5696]"
readout_number = -0.71

[[record]]
seq = "AAUCAUACAUCACCAGAUGUUGAUU [SHAPE_invitro_SARS-CoV-2_Motif_454]"
readout_number = -0.814

[[record]]
seq = "CUGGUGUUCUCACGCAAAGUGGCCAGGGUGUGGGAGACUAGA [hsa-mir-7161]"
readout_number = 1.14

[[record]]
seq = "GAAGGCUAUUUGAACUCUACUAAUGUCACUAUUGCAACCUACUGUACUGGUUCUAUACCUUGUAGUGUUUGUCUUAGUGGUUUAGAUUCUUU"
readout_number = -0.505

[[record]]
seq = "UAGUACAGGUGAGAUUGUACUG [hsa-mir-3920]"
readout_number = -0.888

